# System: Fibroblast
# PROCEDURE SUMMARY: Multiplex assay against human fibroblast
# Format: toxicity, cell-based
# MEASUREMENT CONDITIONS: 48 h, 10 µM, compound concentration 10 uM, replicate 2
What Population Tubulin-Different-Phenotype (%) was measured for each of the following?
Numbers only; they are read as %.

In plain terms, CC(C)(C)c1cc(NC(=O)Nc2ccc(-c3cn4c(n3)sc3cc(OCCN5CCOCC5)ccc34)cc2)no1 has a documented Population Tubulin-Different-Phenotype (%) of 59

Note to self: Population Tubulin-Different-Phenotype (%) recorded for CC(/C=C1\SC(=S)N(CCCC(=O)Nc2ccc(C(=O)O)c(O)c2)C1=O)=C\c1ccccc1 was 58

Form: compound = COc1ccccc1N1CCN(C[C@@H](C(=O)NC(C)(C)C)c2ccccc2)CC1.Cl.Cl ; Population Tubulin-Different-Phenotype (%) = 67

Value of Population Tubulin-Different-Phenotype (%) reported for the compound CCc1cc2cc(NS(=O)(=O)c3ccc(C#N)cc3)ccc2n(CC)c1=O is 69

Recorded result, Cl.NCCc1ccc(O)c(O)c1 [DOPAMINE HYDROCHLORIDE] , Population Tubulin-Different-Phenotype (%): 56

For this compound ( CCCOc1ccc2[nH]cc(C3=CCNCC3)c2n1.Cl ), measured Population Tubulin-Different-Phenotype (%) is 44

Form field Population Tubulin-Different-Phenotype (%), entry N#Cc1c(Oc2cccc(OS(=O)(=O)CCCC(F)(F)F)c2)cccc1C(F)(F)F : 89

Entry CN1CCN(c2cc(-c3ccccc3)nc(N)n2)CC1 — recorded Population Tubulin-Different-Phenotype (%) = 60

Population Tubulin-Different-Phenotype (%) recorded for this compound, Cc1sc2c(c1C)C(c1ccc(Cl)cc1)=N[C@@H](CC(=O)NCCCCCCCCNC(=O)COc1cccc3c1C(=O)N(C1CCC(=O)NC1=O)C3=O)c1nnc(C)n1-2 (stereo partly drawn) , is 80

Just so you know, measured Population Tubulin-Different-Phenotype (%) for O=C(CCCc1ccccc1)Nc1nc2ccccc2c(=O)s1 came out at 73

Recorded Population Tubulin-Different-Phenotype (%) (compound O=C1[C@H](Cc2ccc(O)cc2)N2C(=O)CCN(C(=O)NCc3ccccc3)[C@H]2CN1Cc1cccc2ccccc12 ): 94

Memo: C[C@H](N)COC(=O)[C@@H](CCCCN)NC(=O)Cc1c(-c2ccc3ccccc3c2)[nH]c2c1ccc1ccccc12 , reported Population Tubulin-Different-Phenotype (%): 54

Sure, the documented Population Tubulin-Different-Phenotype (%) for CC(=O)Nc1cccc2c1c(Sc1ccc(Cl)cc1)c(C)n2CC(=O)O is 54

Record COc1cccc2c1c(NS(=O)(=O)c1ccc(Cl)s1)nn2Cc1cccc(CNC(=O)C(C)(C)O)c1 . Reported Population Tubulin-Different-Phenotype (%): 43

According to the records, this compound CCCCC(=O)N(Cc1ccc(-c2ccccc2-c2nnn[nH]2)cc1)[C@H](C(=O)O)C(C)C displays Population Tubulin-Different-Phenotype (%) of 69

In plain terms, CCCCC1=NC2(CCCC2)C(=O)N1Cc1ccc(-c2ccccc2-c2nnn[nH]2)cc1 has a documented Population Tubulin-Different-Phenotype (%) of 58

Looking up COC[C@@H](c1ccc(C(F)(F)F)cc1)N1CCN(C2(C)CCN(C(=O)c3c(C)ncnc3C)CC2)C[C@@H]1C.O=C(O)/C=C\C(=O)O [VICRIVIROC MALEATE] , I see its Population Tubulin-Different-Phenotype (%) listed as 61

So, Cc1c(CC(=O)O)c2cccnc2n1Cc1ccc(S(C)(=O)=O)cc1C(F)(F)F ? Its Population Tubulin-Different-Phenotype (%) was 52
